Consider the following IC50 data for Epidermal growth factor receptor (Homo sapiens, UniProt P00533), collected from several reports.

Field: example entries. Status: answers known.
> print(dat)
                              line.notation  assay.readout            result
1  COc1cc(Nc2ncc(Br)c(Nc3ccc(-c4cnn(C)n4)cc3P(C)(C)=O)n2)c(C)cc1N1CCC(N2CCOCC2)CC1           IC50            8.4 nM
2  C=C(C)c1nc(-c2cccc(NS(=O)(=O)c3c(F)cccc3F)c2)c(-c2ccnc(Nc3ccc(N4CCN(CCF)CC4)c(F)c3)n2)s1           IC50    100 to 1000 nM
3  CCN1CCC(Oc2ccc3c(c2)/C(=C(\c2cccc(OC)c2)c2nc4ccccc4[nH]2)C(=O)N3)CC1           IC50    500 to 5000 nM
4  C=CC(=O)Nc1cc(-c2c(-c3cccc(N4CCOCC4)c3)[nH]c3nccc(Cl)c23)ccc1C           IC50          ≤ 100 nM
5  CN(C)C/C=C/C(=O)N[C@H]1CC[C@@H](n2nc(-c3ccc(Oc4ccccc4)cc3)c3c(N)ncnc32)CC1           IC50           83.4 nM
6  Cc1cc(Oc2ccccc2)ccc1-n1c(=O)n(-c2cccc(N(C)C(=O)/C=C/CN(C)C3CC3)c2)c2ncnc(N)c21           IC50  1000 to 10000 nM

Continue with the next compound.
stdin: Field: IC50 (Epidermal growth factor receptor (Homo sapiens, UniProt P00533)). Entry: CC1(C(=O)N2CCC[C@@H](Nc3n[nH]c4nccc(Oc5ccc(C(=O)Nc6nc7ccccc7s6)cc5)c34)C2)COC1
stdout: > 10000 nM
